- Tested on: Aβ42
- Protocol Summary: Amyloidβ peptide release (Aβ42) assay, AlphaLisa on supernatant of APPswe-HEK cells
- Type: cell-based
- Measurement Conditions: Homo sapiens, 24 hours incubation with compound, read-out: Ab42 IC50 Ranges
pIC50: −log10 of the molar value.
Recorded Metric: pIC50

Return reported pIC50 values for all items listed beneath this line.
1. COc1cc(Nc2nnn3c2CCC3c2ccc(F)cc2)ccc1-n1cnc(C)c1 (centres unmarked)
2. COc1cc(NC(=O)c2nnn3c2CCC3c2ccccc2Cl)ccc1-c1cnn(C)c1 (centres unmarked)
3. COc1cc(N(C)C(=O)c2nnn3c2CCCC3c2ccc(Cl)cc2)ccc1-n1cnc(C)c1 (centres unmarked)
4. COc1cc(NC(=O)c2nnn3c2CCCC3c2ccc(Cl)cc2)ccc1-c1ccnc(C)c1 (centres unmarked)
5. Cc1cn(-c2ccc(NC(=O)c3nnn4c3CCC4c3ccc(Cl)cc3)cc2C#N)cn1 (centres unmarked)
6. COc1cc(NC(=O)c2nnn3c2CCCC3c2ccc(Cl)c(Cl)c2)ccc1-n1cnc(C)c1 (centres unmarked)
7. Cc1cn(-c2ccc(NC(=O)c3nnn4c3CCC4c3ccc(Cl)cc3)cc2F)cn1 (centres unmarked)
8. COc1cc(Nc2nnn3c2CCCC3c2ccccc2C(F)(F)F)ccc1-n1cnc(C)c1 (centres unmarked)

1. 6.30 to 6.82
2. 6.00 to 6.30
3. > 6.00
4. 6.30 to 6.82
5. 6.30 to 6.82
6. ≥ 6.82
7. 6.30 to 6.82
8. 6.30 to 6.82

###

- Test system: Aβ42
- Protocol Summary: Amyloidβ peptide release (Aβ42) assay, AlphaLisa on supernatant of APPswe-HEK cells
- Type: cell-based
- Measurement Conditions: Homo sapiens, 24 hours incubation with compound, read-out: Ab42 IC50 Ranges
pIC50: −log10 of the molar value.
Recorded Metric: pIC50

Molecule | pIC50
Cc1cc(-c2ccc(NC(=O)c3nnn4c3CCCC4c3ccc(F)cc3)cc2)ccn1 (centres unmarked) [Example 21] | > 6.00
COc1cc(C(=O)Nc2nnn3c2CCCC3c2ccc(Cl)c(Cl)c2)ccc1-n1cnc(C)c1 (centres unmarked) [Example 41] | 6.30 to 6.82
COc1cc(NC(=O)c2nnn3c2CCCC3c2ccc(C(F)(F)F)cc2)ccc1-n1cnc(C)c1 (centres unmarked) [Example 25] | ≥ 6.82
COc1cc(Nc2nnn3c2CCCC3c2ccc(Cl)c(Cl)c2)ccc1-n1cnc(C)c1 (centres unmarked) [Example 5] | 6.30 to 6.82
COc1cc(NC(=O)c2nnn3c2CCCC3c2ccc(Cl)cc2)ccc1-n1cnc(C)c1 (centres unmarked) [Example 12] | ≥ 6.82

Please supply pIC50 for each of the following items, keeping them in order.
1. COc1cc(Nc2nnn3c2CCCC3c2ccc(F)cc2Cl)ccc1-n1cnc(C)c1 (centres unmarked) [Example 1]
2. COc1cc(NC(=O)c2nnn3c2CCCC3c2cccc(C(F)(F)F)c2)ccc1-n1cnc(C)c1 (centres unmarked) [Example 22]
3. COc1cc(NC(=O)c2nnn3c2CCC3c2ccc(Cl)c(Cl)c2)ccc1-c1cnn(C)c1 (centres unmarked) [Example 35]

6.30 to 6.82
6.30 to 6.82
6.30 to 6.82
